Values from paper PMC11945486

Molecular target: human TAS1R2-I191V/TAS1R3-WT (Homo sapiens, UniProt Q7RTX0+Q8TE23, I191V)
Construct: expressed in transfected cells; host or cells: HEK293T-Gα16gust44
Sequence (Q8TE23 20-839 I191V): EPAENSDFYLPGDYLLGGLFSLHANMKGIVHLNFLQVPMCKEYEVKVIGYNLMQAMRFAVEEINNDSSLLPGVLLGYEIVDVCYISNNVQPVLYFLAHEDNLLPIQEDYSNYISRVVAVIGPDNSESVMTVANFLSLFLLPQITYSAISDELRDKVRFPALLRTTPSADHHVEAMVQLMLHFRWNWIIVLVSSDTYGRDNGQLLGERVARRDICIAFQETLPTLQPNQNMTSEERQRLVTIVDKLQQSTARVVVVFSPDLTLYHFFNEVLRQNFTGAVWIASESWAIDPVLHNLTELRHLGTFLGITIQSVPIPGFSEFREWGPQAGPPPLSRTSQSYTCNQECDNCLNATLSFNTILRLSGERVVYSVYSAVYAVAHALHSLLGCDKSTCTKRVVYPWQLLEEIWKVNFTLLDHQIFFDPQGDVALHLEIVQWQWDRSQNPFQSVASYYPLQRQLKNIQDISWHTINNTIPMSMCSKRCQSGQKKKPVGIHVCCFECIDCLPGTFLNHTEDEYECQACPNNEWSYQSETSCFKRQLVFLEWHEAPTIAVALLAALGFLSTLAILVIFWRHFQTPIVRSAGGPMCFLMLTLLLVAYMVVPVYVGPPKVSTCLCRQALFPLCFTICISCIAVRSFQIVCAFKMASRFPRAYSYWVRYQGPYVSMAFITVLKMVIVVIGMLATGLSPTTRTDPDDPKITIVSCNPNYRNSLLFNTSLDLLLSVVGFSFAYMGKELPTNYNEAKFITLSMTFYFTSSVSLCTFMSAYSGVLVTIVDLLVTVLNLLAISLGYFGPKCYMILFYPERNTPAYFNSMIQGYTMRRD
Sequence (Q7RTX0 21-852): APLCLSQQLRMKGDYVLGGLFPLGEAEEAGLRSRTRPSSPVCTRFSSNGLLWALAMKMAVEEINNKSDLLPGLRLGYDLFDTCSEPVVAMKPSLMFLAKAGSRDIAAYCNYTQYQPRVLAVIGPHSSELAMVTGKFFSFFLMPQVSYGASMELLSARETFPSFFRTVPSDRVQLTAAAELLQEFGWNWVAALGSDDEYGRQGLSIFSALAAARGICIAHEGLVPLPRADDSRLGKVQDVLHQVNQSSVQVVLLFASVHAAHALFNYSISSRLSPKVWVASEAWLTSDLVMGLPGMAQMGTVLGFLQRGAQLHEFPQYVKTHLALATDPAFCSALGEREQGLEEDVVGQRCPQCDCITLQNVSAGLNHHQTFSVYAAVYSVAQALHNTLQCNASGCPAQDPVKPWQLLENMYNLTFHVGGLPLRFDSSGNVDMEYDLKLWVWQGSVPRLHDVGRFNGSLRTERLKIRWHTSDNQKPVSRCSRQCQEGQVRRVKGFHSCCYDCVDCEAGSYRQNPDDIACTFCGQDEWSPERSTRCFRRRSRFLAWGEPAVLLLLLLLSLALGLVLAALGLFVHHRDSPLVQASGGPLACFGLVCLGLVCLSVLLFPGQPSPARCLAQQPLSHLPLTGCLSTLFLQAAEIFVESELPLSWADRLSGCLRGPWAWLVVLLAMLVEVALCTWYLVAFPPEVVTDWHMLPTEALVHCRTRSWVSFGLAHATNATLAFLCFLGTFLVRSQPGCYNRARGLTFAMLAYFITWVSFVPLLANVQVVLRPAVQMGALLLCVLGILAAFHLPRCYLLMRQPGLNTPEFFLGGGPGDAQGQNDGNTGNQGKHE
Experiment: Calcium mobilisation assay, TAS1R2 variant I191V with TAS1R3-WT
Type: cell-based
readout_type: R1 = Variant EC50/WT EC50
Reply with the value as a number alone.

Using the record for OC[C@H]1O[C@H](O[C@]2(CCl)O[C@H](CCl)[C@@H](O)[C@@H]2O)[C@H](O)[C@@H](O)[C@H]1Cl [Sucralose] , report its R1 = Variant EC50/WT EC50.
1.0

Here is the next compound: C=C(C)[C@@H]1CC=C(/C=N/O)CC1 [Perillartine, perillartine]
1.6

And for C[C@H](CC[C@@H](O[C@@H]1O[C@H](CO[C@@H]2O[C@H](CO)[C@@H](O)[C@H](O)[C@H]2O)[C@@H](O)[C@H](O)[C@H]1O[C@@H]1O[C@H](CO)[C@@H](O)[C@H](O)[C@H]1O)C(C)(C)O)[C@H]1CC[C@@]2(C)[C@@H]3CC=C4[C@@H](CC[C@H](O[C@@H]5O[C@H](CO[C@@H]6O[C@H](CO)[C@@H](O)[C@H](O)[C@H]6O)[C@@H](O)[C@H](O)[C@H]5O)C4(C)C)[C@]3(C)[C@H](O)C[C@]12C [Mogroside V, mogroside V] ?
1.1

###

Measured R1 = Variant EC50/WT EC50, listed per entry.
Target: mTAS1R2-WT/mTAS1R3-I60T (Mus musculus, UniProt Q925D8+Q925I4, I60T)
Construct: expressed in transfected cells; host or cells: HEK293T-Gα16gust44
Sequence (Q925I4 20-843): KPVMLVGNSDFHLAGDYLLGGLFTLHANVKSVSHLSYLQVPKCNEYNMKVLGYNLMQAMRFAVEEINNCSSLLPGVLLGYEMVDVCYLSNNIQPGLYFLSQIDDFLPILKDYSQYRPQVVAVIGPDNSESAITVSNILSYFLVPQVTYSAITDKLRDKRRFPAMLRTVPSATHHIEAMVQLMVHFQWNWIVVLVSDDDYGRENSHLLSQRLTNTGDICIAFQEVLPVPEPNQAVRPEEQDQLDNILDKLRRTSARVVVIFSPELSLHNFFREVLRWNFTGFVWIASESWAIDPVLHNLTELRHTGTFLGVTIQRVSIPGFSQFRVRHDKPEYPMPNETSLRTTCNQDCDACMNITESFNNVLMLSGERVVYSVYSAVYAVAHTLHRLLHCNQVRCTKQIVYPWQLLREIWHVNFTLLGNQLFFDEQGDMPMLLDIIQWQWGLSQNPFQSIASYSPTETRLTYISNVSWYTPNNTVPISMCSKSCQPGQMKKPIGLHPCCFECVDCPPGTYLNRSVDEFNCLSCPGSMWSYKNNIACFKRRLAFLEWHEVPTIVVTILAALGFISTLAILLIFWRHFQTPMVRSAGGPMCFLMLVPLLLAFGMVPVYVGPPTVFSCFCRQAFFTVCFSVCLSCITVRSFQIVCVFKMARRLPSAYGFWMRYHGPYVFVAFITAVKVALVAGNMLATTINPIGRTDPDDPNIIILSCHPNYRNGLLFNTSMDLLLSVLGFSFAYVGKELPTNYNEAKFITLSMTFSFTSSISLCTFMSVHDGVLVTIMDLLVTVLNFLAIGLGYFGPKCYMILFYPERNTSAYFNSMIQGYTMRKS
Sequence (Q925D8 21-858 I60T): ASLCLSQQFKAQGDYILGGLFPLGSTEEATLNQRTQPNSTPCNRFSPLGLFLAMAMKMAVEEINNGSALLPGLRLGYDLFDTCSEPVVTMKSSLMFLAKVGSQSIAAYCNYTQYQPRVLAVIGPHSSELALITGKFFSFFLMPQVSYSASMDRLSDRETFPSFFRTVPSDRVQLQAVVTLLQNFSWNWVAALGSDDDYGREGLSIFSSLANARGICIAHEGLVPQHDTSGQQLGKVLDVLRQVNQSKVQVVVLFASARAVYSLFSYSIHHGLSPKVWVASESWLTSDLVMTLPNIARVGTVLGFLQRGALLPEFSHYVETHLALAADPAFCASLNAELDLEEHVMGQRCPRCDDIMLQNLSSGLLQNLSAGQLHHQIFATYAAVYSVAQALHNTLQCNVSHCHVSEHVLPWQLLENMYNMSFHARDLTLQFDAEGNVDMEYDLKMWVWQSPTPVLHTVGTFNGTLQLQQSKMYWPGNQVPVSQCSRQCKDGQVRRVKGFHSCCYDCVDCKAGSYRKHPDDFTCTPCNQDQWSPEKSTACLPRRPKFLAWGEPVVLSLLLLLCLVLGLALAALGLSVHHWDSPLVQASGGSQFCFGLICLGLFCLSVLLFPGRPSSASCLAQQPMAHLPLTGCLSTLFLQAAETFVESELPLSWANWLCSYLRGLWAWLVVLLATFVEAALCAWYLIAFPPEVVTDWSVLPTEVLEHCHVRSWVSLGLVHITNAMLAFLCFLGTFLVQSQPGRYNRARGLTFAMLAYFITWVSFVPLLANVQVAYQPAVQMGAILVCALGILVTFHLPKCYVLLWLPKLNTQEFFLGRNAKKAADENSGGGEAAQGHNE
Experiment: Calcium mobilisation assay, HEK293T-Gα16gust44 cells, mouse TAS1R3-I60T variant
Type: cell-based
Details: mTAS1R3-I60T vs mTAS1R3-WT; "-": no activation
Would you mind answering with just the numeric figure?

- compound: "CC1=CC(=O)NS(=O)(=O)O1"
  readout_type: "R1 = Variant EC50/WT EC50"
  measured: 1.7

Name the recorded R1 = Variant EC50/WT EC50 for C[C@H](CC[C@@H](O[C@@H]1O[C@H](CO[C@@H]2O[C@H](CO)[C@@H](O)[C@H](O)[C@H]2O)[C@@H](O)[C@H](O)[C@H]1O[C@@H]1O[C@H](CO)[C@@H](O)[C@H](O)[C@H]1O)C(C)(C)O)[C@H]1CC[C@@]2(C)[C@@H]3CC=C4[C@@H](CC[C@H](O[C@@H]5O[C@H](CO[C@@H]6O[C@H](CO)[C@@H](O)[C@H](O)[C@H]6O)[C@@H](O)[C@H](O)[C@H]5O)C4(C)C)[C@]3(C)[C@H](O)C[C@]12C [Mogroside V, mogroside V] .
1.7

Please do the same for C=C1C[C@@]23CC[C@H]4[C@@](C)(CCC[C@@]4(C)C(=O)O[C@@H]4O[C@H](CO)[C@@H](O)[C@H](O[C@@H]5O[C@H](CO)[C@@H](O)[C@H](O)[C@H]5O)[C@H]4O[C@@H]4O[C@H](CO)[C@@H](O)[C@H](O)[C@H]4O)[C@@H]2CC[C@]1(O[C@@H]1O[C@H](CO)[C@@H](O)[C@H](O[C@@H]2O[C@H](CO)[C@@H](O)[C@H](O)[C@H]2O)[C@H]1O[C@@H]1O[C@H](CO)[C@@H](O)[C@H](O)[C@H]1O)C3 [Rebaudioside M, rebaudioside M] as well.
1.7

Request: OC[C@H]1O[C@H](O[C@]2(CCl)O[C@H](CCl)[C@@H](O)[C@@H]2O)[C@H](O)[C@@H](O)[C@H]1Cl
2.0
